Tested on: CAKI-1 renal
Assay: NCI tumour cell line growth inhibition, 48 h
Assignment: determine reported TGI for the given compounds.

Parameters: items (list). Returns: TGI for each item.
1. Cc1ccc2oc(=O)c(C(=O)Nc3nc(C45CC6CC(CC(C6)C4)C5)cs3)cc2c1
2. CC/C=C(\C(=C/CC)[N+](=O)[O-])[N+](=O)[O-]
3. Nc1ccn(C2OC(COC(=O)C34CC5CC(CC(C5)C3)C4)C(O)C2O)c(=O)n1 (stereo not drawn)
4. OCC(O)c1nc2ccc3[nH]ncc3c2c2c1CCCC2 (stereo not drawn)
5. S=C(c1c[nH]c2ccccc12)N1CCN(Cc2ccccc2)CC1
6. Nc1nn2c(nc(N)c3c(N)[nH]nc32)c1N=Nc1ccc(Br)cc1

["> 100 µM", "37.8 µM", "> 100 µM", "> 50 µM", "56.1 µM", "> 100 µM"]

// each compound listed below needs its TGI
1. O=CC12C3CCC1C2C(=O)C3 (stereo not drawn)
2. COc1ccc(C2C3COc4ccccc4C3=NN2c2ccccc2)cc1 (stereo not drawn)

1. > 100 µM
2. > 100 µM
